- assayTarget: Amyloid-beta precursor protein (Homo sapiens)
- testProtocol: Inhibition of human amyloid beta (1 to 42) aggregation at 1 to 100 uM after 24 hrs by thioflavin-T fluorescence assay
Calls of active or inactive are those of the source. The calls are words filed in the database; no cut-off is given here.
Assign a class; possible classes are active, inactive

Hi, do you know how COC(=O)[C@]1(O)C[C@@H](OC(=O)/C=C/c2ccc(O)c(O)c2)[C@@H](OC(=O)/C=C/c2ccc(O)c(O)c2)[C@H](OC(=O)/C=C/c2ccc(O)c(O)c2)C1 came out in this test?
active

Hi, do you know how O=C(/C=C/c1ccc(O)c(O)c1)O[C@H]1[C@H](O)C[C@](OC(=O)/C=C/c2ccc(O)c(O)c2)(C(=O)O)C[C@H]1OC(=O)/C=C/c1ccc(O)c(O)c1 came out in this test?
active

Hi, do you know how COC(=O)[C@]1(O)C[C@@H](O)[C@@H](O)[C@H](OC(=O)/C=C/c2ccc(O)c(O)c2)C1 [CHLOROGENIC ACID METHYL ESTER] came out in this test?
inactive

Hi, do you know how O=C(O)[C@]1(O)C[C@@H](O)[C@@H](O)[C@H](O)C1 (relative stereo) [QUINIC ACID] came out in this test?
inactive

Hi, do you know how O=C(/C=C/c1ccc(O)c(O)c1)O[C@@H]1[C@H](O)C[C@@](O)(C(=O)O)C[C@H]1OC(=O)/C=C/c1ccc(O)c(O)c1 came out in this test?
active

Hi, do you know how O=C(/C=C/c1ccc(O)c(O)c1)O[C@@H]1C[C@](O)(C(=O)O)C[C@@H](OC(=O)/C=C/c2ccc(O)c(O)c2)[C@H]1O came out in this test?
active

Hi, do you know how O=C(/C=C/c1ccc(O)c(O)c1)O[C@H]1[C@H](O)C[C@](O)(C(=O)O)C[C@H]1OC(=O)/C=C/c1ccc(O)c(O)c1 came out in this test?
active

Hi, do you know how O=C(/C=C/c1ccc(O)c(O)c1)O[C@@H]1C[C@](O)(C(=O)O)C[C@@H](OC(=O)/C=C/c2ccc(O)c(O)c2)[C@H]1OC(=O)/C=C/c1ccc(O)c(O)c1 came out in this test?
active

Hi, do you know how O=C(O)/C=C/c1ccccc1 [CINNAMIC ACID] came out in this test?
inactive

---

Give measured log10 IC50 for each item. Keep answers brief.
- assayTarget: UniProt P05067
- testProtocol: Inhibition of human amyloid beta (1 to 42) aggregation after 24 hrs by thioflavin-T fluorescence assay
Transform log10 | Measure IC50 | Unit µM

I am curious: what log10 IC50 value has been reported for O=C(/C=C/c1ccc(O)c(O)c1)O[C@@H]1C[C@](O)(C(=O)O)C[C@@H](OC(=O)/C=C/c2ccc(O)c(O)c2)[C@H]1O ?
1.21

I am curious: what log10 IC50 value has been reported for O=C(O)/C=C/c1ccc(O)c(O)c1 [CAFFEIC ACID] ?
1.52

I am curious: what log10 IC50 value has been reported for O=C(/C=C/c1ccc(O)c(O)c1)O[C@@H]1C[C@](O)(C(=O)O)C[C@@H](OC(=O)/C=C/c2ccc(O)c(O)c2)[C@H]1OC(=O)/C=C/c1ccc(O)c(O)c1 ?
-0.52

I am curious: what log10 IC50 value has been reported for O=C(/C=C/c1ccc(O)c(O)c1)O[C@H]1[C@H](O)C[C@](O)(C(=O)O)C[C@H]1OC(=O)/C=C/c1ccc(O)c(O)c1 ?
-1.00

I am curious: what log10 IC50 value has been reported for O=C(/C=C/c1ccc(O)c(O)c1)O[C@@H]1[C@H](O)C[C@@](O)(C(=O)O)C[C@H]1OC(=O)/C=C/c1ccc(O)c(O)c1 ?
0.67

I am curious: what log10 IC50 value has been reported for O=C(/C=C/c1ccc(O)c(O)c1)O[C@H]1[C@H](O)C[C@](OC(=O)/C=C/c2ccc(O)c(O)c2)(C(=O)O)C[C@H]1OC(=O)/C=C/c1ccc(O)c(O)c1 ?
0.34

---

Give measured IC50 for each item. Keep answers brief.
- assayTarget: Amyloid-beta precursor protein (Homo sapiens, UniProt P05067)
- Sequence (P05067 whole entry): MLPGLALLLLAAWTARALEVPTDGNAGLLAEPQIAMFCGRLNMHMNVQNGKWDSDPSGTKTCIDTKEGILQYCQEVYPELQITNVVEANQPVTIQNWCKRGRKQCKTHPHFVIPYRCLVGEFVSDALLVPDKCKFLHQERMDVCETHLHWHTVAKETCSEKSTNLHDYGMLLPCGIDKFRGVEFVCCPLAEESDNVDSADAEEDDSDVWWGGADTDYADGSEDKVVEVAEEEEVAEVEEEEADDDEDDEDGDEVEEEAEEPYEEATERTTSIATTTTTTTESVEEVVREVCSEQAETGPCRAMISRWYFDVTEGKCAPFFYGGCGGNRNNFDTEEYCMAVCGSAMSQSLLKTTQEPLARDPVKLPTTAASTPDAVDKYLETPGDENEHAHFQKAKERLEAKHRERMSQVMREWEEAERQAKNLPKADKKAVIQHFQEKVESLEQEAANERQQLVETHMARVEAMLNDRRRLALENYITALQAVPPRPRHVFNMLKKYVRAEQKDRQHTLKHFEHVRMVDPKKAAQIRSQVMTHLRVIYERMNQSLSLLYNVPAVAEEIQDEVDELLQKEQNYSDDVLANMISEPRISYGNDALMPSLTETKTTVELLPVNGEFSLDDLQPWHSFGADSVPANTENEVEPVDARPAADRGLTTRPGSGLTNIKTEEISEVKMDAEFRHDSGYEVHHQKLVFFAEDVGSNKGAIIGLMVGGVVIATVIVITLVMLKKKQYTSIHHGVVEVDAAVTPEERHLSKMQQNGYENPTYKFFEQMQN
- testProtocol: Inhibition of human amyloid beta (1 to 42) aggregation after 24 hrs by thioflavin-T fluorescence assay

I am curious: what IC50 value has been reported for O=C(/C=C/c1ccc(O)c(O)c1)O[C@@H]1C[C@](O)(C(=O)O)C[C@@H](O)[C@H]1O [CHLOROGENIC ACID] ?
92.9 µM

I am curious: what IC50 value has been reported for O=C(O)[C@]1(O)C[C@@H](O)[C@@H](O)[C@H](O)C1 (relative stereo) [QUINIC ACID] ?
> 100 µM

I am curious: what IC50 value has been reported for COC(=O)[C@]1(O)C[C@@H](OC(=O)/C=C/c2ccc(O)c(O)c2)[C@@H](OC(=O)/C=C/c2ccc(O)c(O)c2)[C@H](OC(=O)/C=C/c2ccc(O)c(O)c2)C1 ?
3 µM

I am curious: what IC50 value has been reported for COC(=O)[C@]1(O)C[C@@H](O)[C@@H](O)[C@H](OC(=O)/C=C/c2ccc(O)c(O)c2)C1 [CHLOROGENIC ACID METHYL ESTER] ?
> 100 µM
